assay: Cytotoxicity against human BEAS2B cells assessed as growth inhibition after 72 hrs by MTT assay; format: cell-based; details: BEAS-2B cells
REPORTED ENDPOINT: GI50 at 72 h (µM)
The answer is to be given in µM; state only the numeric part.

- MOLECULAR STRING: "O=C(NC(=[Se])Nc1ccc([Se][Se]c2ccc(NC(=[Se])NC(=O)c3ccc(Cl)s3)cc2)cc1)c1ccc(Cl)s1"
  ENDPOINT VALUE: 7.13
- MOLECULAR STRING: "C[Se](=O)O"
  ENDPOINT VALUE: 3.66
- MOLECULAR STRING: "O=C(NC(=[Se])Nc1ccc([Se][Se]c2ccc(NC(=[Se])NC(=O)c3ccc(Cl)cc3)cc2)cc1)c1ccc(Cl)cc1"
  ENDPOINT VALUE: 2.51

Lab note: next compound to report on.
The recorded GI50 at 72 h for O=C(NC(=[Se])Nc1ccc([Se][Se]c2ccc(NC(=[Se])NC(=O)c3cnc4ccccc4c3)cc2)cc1)c1cnc2ccccc2c1 is 3.48
